These data points were gathered from paper PMC5349447.

Test system: SCC 22B cells
Experiment: Cisplatin sensitization, CyQUANT, SCC 22B
Format: cell-based, human
Experimental setup: SCC 22B, vehicle (DMSO) pretreatment, 48 hours
Experimental endpoint: IC50
The reply must contain the numeric value and, after it, the unit.

Form: molecule = N.N.[Cl][Pt][Cl] [cisplatin] ; IC50 = 32 µM
